The reported numbers originate from the supplement of paper PMC10567573.

test: protein stability index of a GFP-peptide fusion (GPS, HEK-293T) (PSI 1-6); higher = more stable; conditions: treatment: MLN4924 1 uM, 8 h; c terminus: a fixed tail appended;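 also: 24-mer peptide tiles fused after GFP, lentivirally expressed, FACS-sorted into six equal bins by GFP/DsRed ratio, decoded by Illumina sequencing, PSI is the read-weighted mean bin number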
Class Yes: protein stability index at least 3. Class No: protein stability index below 3.

- NMEELTEVITAAEFHPHHCNTFVY [PPP2R2B]: No
- PQLRICLRVSPAEQPRLEFLMRKC [FBXO33]: No
- SKLVESGIQFMDEPEMAVFLQNAK [TRIM55]: Yes

Can DTLISQESCEKNDPLSLLDDSKFP [PCDHGA10] be said to have protein stability index at or above 3? Yes

Given the entry AGADLEHESEGGRTPLMKAARAGH [ANKRD17] , answer whether its protein stability index meets or surpasses 3. Yes

In plain terms: is recorded protein stability index at least 3 for HFSFNVKFYPPDPAQLSEDITRYY [EPB41L3] ? No

Quick check: does GTPMALIVISYIHVAAAVLRIRSV [OR3A1] have protein stability index greater than or equal to 3? Yes

Assess whether reported protein stability index for VKPENFLIGRPGNKTQQVIHIIDF [CSNK1G3] sits at 3 or higher. No

* * *

test: protein stability index of a GFP-peptide fusion (GPS, HEK-293T) (PSI 1-6); higher = more stable; conditions: treatment: DMSO; c terminus: a fixed tail appended
protein stability index values by entry

* TATREEASTSLPTKPTQGASSASE [CLPTM1] | 5.47

Return protein stability index (reported value) for this sequence: PSIYHTMASPCSAMAYHHDSRRIF [WDFY1] 2.14

# return recorded protein stability index for input ACIAYIRITQYLDAGGIPRTAQSE [CAMK2A] 2.64

Item FPETTFISVTAYQNPQITQLKIAA [TBX6] : provide protein stability index 2.58

Report protein stability index for AAARGGQCPGLGPAPTPTPPGRLG [ZBED3] 4.36

Answer with the recorded protein stability index of ISPSTLKNSLFPSPISSISPGLHS [KCNK9] only. 2.71

Tell me its protein stability index given PGDFDRNVPRICGVCGDRATGFHF [VDR] as the entry. 2.19

Provide measured protein stability index value, entry: IENIQRVAAGVLCELAQDKEAAEA [CTNNB1] 5.08

Identify protein stability index associated with the sequence EEPAEKEDLLQQMLERRYTPYPNL [CLCN6] 4.4

In one line, give reported protein stability index of the entry KGERRREPGGYDSSSTLMSSELET [DVL3] . 5.19

Please indicate protein stability index recorded for LVEKGVLTTEKQNFLLFDMTTHPL [GOLPH3] 2.51

State, in one line, measured protein stability index of AGTKVFEVPEMSPVTCCDVSSNNR [TLE6] 4.13

Report measured protein stability index; entry is VSDSLTWREFHYIQSKLGIVSLLL [STEAP1] 2.45

Determine its reported protein stability index: PEELRKVFITYSMDTAMEVVKFVN [TRAF3IP2] 2.24

// fetch protein stability index given entry VFSFGKHYWELDVDNSCDWALGVC [TRIM43] 2.54

Tell me its protein stability index given HLSRLCVRHNLGDTRLGQVSALPL [SPSB2] as the entry. 2.38

Respond only with protein stability index recorded for SSKEEQKLIATSNKPAVKLLYNRS [KCTD10] 3.9

Complete the entry with protein stability index for KDHECSECGKTFIYNSHLVVHQRV [ZNF232] 2.56

* * *

assay: protein stability index of a GFP-peptide fusion (GPS, HEK-293T) (PSI 1-6); higher = more stable; settings: treatment: DMSO; c terminus: a fixed tail appended
reported-metric: protein stability index
Returns: the value as a bare number; no unit string appended.

* VIFALCWFPLHLSRILKKTVYNEM [EDNRA] | 3

State its protein stability index: IPIFNETGRFSFTLPYPVKIKVRF [HACD3] 2.92

Please supply the value of reported protein stability index for the item QFRMAQEEARRNRLMRDMAQLRLQ [SMG5] 2.95

* * *

test: protein stability index of a GFP-peptide fusion (GPS, HEK-293T) (PSI 1-6); higher = more stable; conditions: treatment: MLN4924 1 uM, 8 h; c terminus: a fixed tail appended
This section presents sequences with their documented protein stability index values.
Respond using a number only.

These solved cases illustrate the format of a correct answer.
* DNAPVFTLPEYRVSVPENLPVGTQ [PCDHGA10] | 4.45
* QEVFEPPHYELCTLRGTGATADFA [NETO1] | 3.88
* PEARSRDATPPVSPINMEDQERIK [JUNB] | 5.42
* MEKYERIRVVGRGAFGIVHLCLRK [NEK8] | 2.33
* LPKVLQKYWCVTATRVAPERLFGS [ZBED1] | 2.2

With those in mind, consider the next sequence.
Provide measured protein stability index value, entry: IVILENIAVAWIYGTKKFMQELTE [SLC6A17] 2.92

* * *

assay: protein stability index of a GFP-peptide fusion (GPS, HEK-293T) (PSI 1-6); higher = more stable; details: treatment: DMSO; c terminus: a fixed tail appended
reported-metric: protein stability index

Recorded protein stability index, per entry:
* RLREAAALGDIREVQKLVESGVDV [ANKRD40] | 4.28
* IVALYIASGLTGFIGLEVVAQLFN [ATL3] | 3.24
* SAHPVEVFSFDLHEPLSKERVEAF [TMEM175] | 3.82

Look up protein stability index of "AQVPDTRWSRVGGQRFYSRVLSPL" and report it. 2.41

Give the measured protein stability index for SNYIFVAIFWIVFLLLIVFYTAIT [P2RY14] 2.26

Dear colleague, please send me the reported protein stability index for ANAQIQILTRSWEEVSTLNAQIPE [CD207] when you can. 3.52

Item HRLRVQQAALRAARLRHQELFRLR [NOP53] : provide protein stability index 2.88

Give the reported value of protein stability index for this record: PSVYHAMPSPCSCMSFNPETRRLS [WDFY2] 2.57

For the sequence SNMCINNTLVCNGLQNCVYPWDEN [NETO1] , give its measured protein stability index value. 3.29

Consider the sequence DSPENMMRHIRFLKNEVERLKKQL [CCDC6] and give its recorded protein stability index. 4.18

Output protein stability index of DQKVIELVKKYGTKQWTLIAKHLK [MYBL2] 2.77

For the sequence ETVVSYLPLSHIAAQMMDIWVPIK [ACSBG2] , report protein stability index. 2.14

* * *

assay: protein stability index of a GFP-peptide fusion (GPS, HEK-293T) (PSI 1-6); higher = more stable; conditions: treatment: MLN4924 1 uM, 8 h; c terminus: a fixed tail appended
Each entry below lists one item and its recorded protein stability index value.
Lab note: jot the number down without any unit.

Study these solved cases before continuing.
• KRGSIPTSLTALSLASASPPLSGR [PPFIA4] = 4.17
• MELKVGDFGLAARLEPLEHRRRTI [PLK2] = 3.43

Please report protein stability index for the following sequence: DLPINVFKLLAGRWPFDHNDFGVF [EDNRA] 2.19

* * *

test: protein stability index of a GFP-peptide fusion (GPS, HEK-293T) (PSI 1-6); higher = more stable; details: treatment: MLN4924 1 uM, 8 h; c terminus: a fixed tail appended
reported-metric: protein stability index
Write the value as a bare number.

Previously resolved entries follow.
• EEPAEKEDLLQQMLERRYTPYPNL [CLCN6] = 4.44
• LKVTGKPDAETLKVMKQPRCGVPD [MMP1] = 4.49

Item TAEPFPRLHNLYSTPRCAQQAALP [CBY2] : provide protein stability index 2.66

Please report the measured protein stability index for MKRDVQEGQARCLAHLGRHMEALE [C8orf76] 3.97

Indicate its recorded protein stability index; the sequence in question is KLVADFQRYILYWRKRFTEQPITD [ZNF277] 2.19

Please indicate protein stability index recorded for EARFIRRSCTPNAEVRHEIQDGTI [KMT2E] 4.27

Give the value of protein stability index reported for the following: SESMENINSGYETRRKKGKKDKDI [KMT2E] 5.39

* * *

assay: protein stability index of a GFP-peptide fusion (GPS, HEK-293T) (PSI 1-6); higher = more stable; conditions: treatment: MLN4924 1 uM, 8 h; c terminus: a fixed tail appended
reported-metric: protein stability index
Enter the number alone.

* LPNHRAAKRLWKVCVEHHTFFRLL [EPB41L3] | 2.36
* QDLCCRAVVSCTPVHLVDKLPLPI [RAB40B] | 2.09
* PSASLGKASSRKPFGILSPNVLCS [FBXO34] | 2.8
* ITYQPAASTKMCEQALGKGCGADS [PLK2] | 4.44
* IMDANQTYLVSERLEREERNQTQV [FAF2] | 4.32

Determine from records and report protein stability index for DSPENGADSFESSDSLLQSWNSQS [ETS2] 5.14

Please give measured protein stability index of the following entry: EWNEKVTQSDLYKKTQETLSQAGQ [TPD52L2] 4.4
